# Tested on: TE-10 (Esophageal Squamous Cell Carcinoma);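 also: after 72 h of two-drug dosing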
# procedureSummary: Bliss excess, mean over the matrix (fraction); higher = more synergy
Rule: Bliss excess under 0.007 gives F, otherwise T.

Consider the worked cases shown below.
| compound | groupLabel |
| --- | --- |
| CN(CCO)CC[C@H](CSc1ccccc1)Nc1ccc(S(=O)(=O)NC(=O)c2ccc(N3CCC([C@@H](O)c4ccccc4-c4ccc(Cl)cc4)CC3)cc2)cc1S(=O)(=O)C(F)(F)F [AZD4320] + C[C@@H]1COCCN1C2=NC(=NC(=C2)C3(CC3)[S@](=N)(=O)C)C4=C5C=CNC5=NC=C4 [AZD6738] (first compound max 1 µM, 7x7, partner max 10 µM) | F |
| COc1cccc(OCCCN)c1-c1cc(Nc2cnc(C#N)cn2)n[nH]1 [Prexasertib] + CCc1c2c(nc3ccc(O)cc13)-c1cc3c(c(=O)n1C2)COC(=O)[C@]3(O)CC [SN-38] (first compound max 1 µM, 7x7, partner max 0.3 µM) | F |
| Cc1c2c(nn1C)CSCc1cc(n(C)n1)CSc1cc(c3ccccc3c1)OCCCc1c(C(=O)O)n(C)c3c-2c(Cl)ccc13 [AZD5991] + C=CCn1c(=O)c2cnc(Nc3ccc(N4CCN(C)CC4)cc3)nc2n1-c1cccc(C(C)(C)O)n1 [AZD1775] (first compound max 1 µM, partner max 1 µM) | F |
| Cc1c2c(nn1C)CSCc1cc(n(C)n1)CSc1cc(c3ccccc3c1)OCCCc1c(C(=O)O)n(C)c3c-2c(Cl)ccc13 [AZD5991] + CC1(C)CCC(CN2CCN(c3ccc(C(=O)NS(=O)(=O)c4ccc(NCC5CCOCC5)c([N+](=O)[O-])c4)c(Oc4cnc5[nH]ccc5c4)c3)CC2)=C(c2ccc(Cl)cc2)C1 [Venetoclax] (first compound max 1 µM, 7x7, partner max 1 µM) | T |
| CCN(CCO)CCCOc1ccc2c(Nc3cc(CC(=O)Nc4cccc(F)c4)[nH]n3)ncnc2c1 [AZD2811] + C=CCn1c(=O)c2cnc(Nc3ccc(N4CCN(C)CC4)cc3)nc2n1-c1cccc(C(C)(C)O)n1 [AZD1775] (first compound max 1 µM, partner max 1 µM) | T |
| CC1(C)CCC(CN2CCN(c3ccc(C(=O)NS(=O)(=O)c4ccc(NCC5CCOCC5)c([N+](=O)[O-])c4)c(Oc4cnc5[nH]ccc5c4)c3)CC2)=C(c2ccc(Cl)cc2)C1 [Venetoclax] + C[C@@H](Nc1cc(F)cc(F)c1)c1cc(C(=O)N(C)C)cc2c(=O)cc(N3CCOCC3)oc12 [AZD8186] (first compound max 1 µM, 7x7, partner max 3 µM) | F |

Quick check: does Cc1cc2ncnn2cc1Nc1ncc2c(n1)n(C1CCOCC1)c(=O)n2C [AZD7648] + C=CCn1c(=O)c2cnc(Nc3ccc(N4CCN(C)CC4)cc3)nc2n1-c1cccc(C(C)(C)O)n1 [AZD1775] (first compound max 10 µM, partner max 1 µM) have Bliss excess greater than or equal to 0.007?
F

Quick check: does Cc1cc2ncnn2cc1Nc1ncc2c(n1)n(C1CCOCC1)c(=O)n2C [AZD7648] + CCN(CCO)CCCOc1ccc2c(Nc3cc(CC(=O)Nc4cccc(F)c4)[nH]n3)ncnc2c1 [AZD2811] (first compound max 10 µM, 7x7, partner max 1 µM) have Bliss excess greater than or equal to 0.007?
T

Quick check: does Cc1c2c(nn1C)CSCc1cc(n(C)n1)CSc1cc(c3ccccc3c1)OCCCc1c(C(=O)O)n(C)c3c-2c(Cl)ccc13 [AZD5991] + C[C@@H]1COCCN1C2=NC(=NC(=C2)C3(CC3)[S@](=N)(=O)C)C4=C5C=CNC5=NC=C4 [AZD6738] (first compound max 1 µM, 7x7, partner max 10 µM) have Bliss excess greater than or equal to 0.007?
F

Quick check: does COc1cccc(OCCCN)c1-c1cc(Nc2cnc(C#N)cn2)n[nH]1 [Prexasertib] + C[C@@H]1COCCN1C2=NC(=NC(=C2)C3(CC3)[S@](=N)(=O)C)C4=C5C=CNC5=NC=C4 [AZD6738] (first compound max 1 µM, 7x7, partner max 10 µM) have Bliss excess greater than or equal to 0.007?
F

Quick check: does Cc1c2c(nn1C)CSCc1cc(n(C)n1)CSc1cc(c3ccccc3c1)OCCCc1c(C(=O)O)n(C)c3c-2c(Cl)ccc13 [AZD5991] + C[C@@H](Nc1cc(F)cc(F)c1)c1cc(C(=O)N(C)C)cc2c(=O)cc(N3CCOCC3)oc12 [AZD8186] (first compound max 1 µM, 7x7, partner max 3 µM) have Bliss excess greater than or equal to 0.007?
T
